Give measured Kd for each item. Keep answers brief.
Biological target: T1, endothelial protein C receptor (EPCR), extracellular domain, biotinylated on the N-terminal BAP tag (human, UniProt Q9UNN8 18-210, biotin attached to the N-terminal BAP tag (BirA))
T1 construct: also called biotinylated recombinant EPCR; ECPR
T1 sequence: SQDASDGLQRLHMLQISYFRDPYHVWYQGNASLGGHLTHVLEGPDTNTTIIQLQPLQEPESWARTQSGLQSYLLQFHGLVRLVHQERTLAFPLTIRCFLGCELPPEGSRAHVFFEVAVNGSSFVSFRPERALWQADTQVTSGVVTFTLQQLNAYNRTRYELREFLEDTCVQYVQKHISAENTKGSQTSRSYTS
Test: SPR
Conditions: both partners purified
Your answer is read as nM, so omit the unit and give the number.

Ask: Given the binder CIDRα1.8b domain GA029_ERS010532 (domain or fragment, also called CIDRa1.8b GA029_ERS010532; GA029 (1.8b)) PDCVVVCERGNCTEKKGDDKCRKKYTYEIPAGMESTKIDILFSGENQEDITEKLRSFCKNTNNENGENIEKWECYYKNEYDNKCKMTSLKREDQKHHDLMSYYEFFDFWVTHLIKDTIKWESDINDCINNTNVTNCNNGCNENCICFEKWVGQKEKEWENVKKVLKNPSENLNNYYNKLNGIFSGFFFGVMHELKKKEAKQGVKVEKAEKSEEAQEAQEEEAKWNKLTAKLEEIIKSHKENTGTGNTQDAIEPLLKYLDENAITCKDNNSLKEDKNCPKTKKNPC , write its reported Kd.
Reply: 24.2

Ask: Given the binder CIDRα1.4 domain of PfEMP1 DD2var32 (domain or fragment, also called CIDRa1.4 DD2var32_DD2; DD2var32 (1.4)) PDCGVECNKGTCKKKPNDSNCRNNEAYIPPRDVTPTKINVLYSGDGHGDITKKLKGFCSNPTDYDGKNYENWQCYYKSSEDNKCQMTSLSQTLQKHHYVMSFYAFFDFWVRKFLIDTIKWENELKNCINNTTTDCSDGCNKHCVCFDKWVKQKEKEWNSIKKLFTKKNNVPQPYYTNINNLFDSFYFQVMYELNHDEAKWKELTQELRNKINSSKKNTDAADSKDAIELLLEYLKEKSTICKDNNTNEAC , write its reported Kd.
Reply: 0.3

Ask: Given the binder CIDRα1.1 domain 2110-3 (patient isolate 2110) (domain or fragment) CPDCVVECVGGECKQKTDDDKNCRSKIIEEILKGEEPTVIDVLYSGNGQGVITKKLHDFCSSTNKEDDKYYKKWKCYNKNSDYNNCELISSLSTDPNDPNVMLSIKCFDSWARNLLVDALKWEHQLKNCINNTNVTDCKSNCNNNCKCYEEWIKRKGREWKQVKGVIENNDEGSHYYYKNVKNLFYNFLYPVIYKLEKEEKNGKWDQFMEDLKKKIESSETNTHTTDSQDAIELLLDHLKENAITCKDNNSLEEDKNC , write its reported Kd.
Reply: 32

Where do these numbers come from? They come from paper PMC4297295.
